Origin of the recorded values: ChEMBL document CHEMBL1145879

- Measurement Description: Aqueous solubility at pH 6.6
- Format: physicochemical
Value Kind: solubility

Req: What value of measured solubility is listed for "C[C@@H](c1nc(-c2ccc(C#N)cc2)cs1)[C@](O)(Cn1c[n+](COP(=O)([O-])O)cn1)c1ccc(F)cc1F" ?
Resp: > 30 µg/mL
